IC50: recorded values
# study_target: human cloned 5-HT2A receptor, expressed in L929 cells (Homo sapiens)
# Construct: expressed in transfected cells; host or cells: L929 cells
# Sequence (P28223 whole entry): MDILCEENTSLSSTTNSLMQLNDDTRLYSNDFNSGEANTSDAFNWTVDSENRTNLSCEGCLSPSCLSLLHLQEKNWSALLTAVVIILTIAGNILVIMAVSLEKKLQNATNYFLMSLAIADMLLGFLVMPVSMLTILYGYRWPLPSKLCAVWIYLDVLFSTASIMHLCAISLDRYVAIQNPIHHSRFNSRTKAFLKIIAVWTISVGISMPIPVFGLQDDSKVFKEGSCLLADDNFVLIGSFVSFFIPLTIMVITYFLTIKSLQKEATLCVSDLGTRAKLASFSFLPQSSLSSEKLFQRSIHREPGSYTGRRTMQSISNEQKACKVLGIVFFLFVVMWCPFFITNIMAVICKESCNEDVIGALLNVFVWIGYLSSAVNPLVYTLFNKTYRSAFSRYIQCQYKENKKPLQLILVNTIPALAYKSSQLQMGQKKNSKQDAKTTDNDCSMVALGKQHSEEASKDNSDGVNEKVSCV
# test_details: In vitro radioligand binding affinity for 5-HT2A receptor ([125I]R91150)
# particulars: human cloned 5-HT2A receptor in L929 cells, [125I]R91150; read-out: h-5HT2A (converted)
# Procedure: The interaction of the compounds of Formula (I) with 5-HT2A and 5-HT2C receptors was assessed in in vitro radioligand binding experiments. […] When equilibrium of binding is reached, the receptor bound radioactivity is separated from the non-bound radioactivity, and the receptor bound activity is counted. The interaction of the test compounds with the receptors is assessed in competition binding experiments. […]
Dear colleague, please return just the value in nM, with no unit written.

# count of solved cases: 2
CN(C)C[C@H]1C[C@@H]2c3ccccc3Cc3ccc(F)cc3[C@H]2[S@+]1[O-]; 7760
CN(C)C[C@H]1C[C@@H]2c3ccccc3Cc3ccc(F)cc3[C@H]2N1 [37a]; 44.7

The value of IC50 measured for the compound OCCN1CCN(C[C@H]2C[C@@H]3c4ccccc4Cc4ccc(F)cc4[C@H]3N2)CC1 [43a] turned out to be 427

The value of IC50 measured for the compound Fc1ccc2c(c1)[C@H]1N[C@@H](CN3CCOCC3)C[C@@H]1c1ccccc1C2 turned out to be 631

The value of IC50 measured for the compound CN(C)C[C@H]1C[C@@H]2c3ccccc3Cc3ccc(F)cc3[C@H]2N1CCO turned out to be 87.1

The value of IC50 measured for the compound CN(C)CC1CO[C@@H]2c3cc(F)ccc3Cc3ccccc3[C@@H]12 (mixture of isomers) turned out to be 3800

====

# study_target: human cloned 5-HT2C receptor, expressed in CHO cells (Homo sapiens, UniProt P28335)
# Construct: expressed in transfected cells; host or cells: CHO cells
# Sequence (P28335 33-458): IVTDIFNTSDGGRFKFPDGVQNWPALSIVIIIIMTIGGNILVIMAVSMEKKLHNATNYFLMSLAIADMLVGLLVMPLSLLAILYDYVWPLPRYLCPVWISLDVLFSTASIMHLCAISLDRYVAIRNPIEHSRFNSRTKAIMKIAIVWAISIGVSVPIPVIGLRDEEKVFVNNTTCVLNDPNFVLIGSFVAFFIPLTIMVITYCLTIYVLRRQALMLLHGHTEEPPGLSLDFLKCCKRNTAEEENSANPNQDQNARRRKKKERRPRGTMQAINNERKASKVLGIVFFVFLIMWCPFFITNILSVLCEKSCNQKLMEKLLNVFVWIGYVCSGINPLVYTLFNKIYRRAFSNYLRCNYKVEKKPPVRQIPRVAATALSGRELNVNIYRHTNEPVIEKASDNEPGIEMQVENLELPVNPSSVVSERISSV
# test_details: In vitro radioligand binding affinity for 5-HT2C receptor ([3H]mesulergine)
# particulars: human cloned 5-HT2C receptor in CHO cells, [3H]mesulergine; read-out: h-5HT2C (converted)
quantity_measured: IC50 (µM)
Dear colleague, please return just the value in µM, with no unit written.

# count of solved cases: 2
N[C@@H]1CO[C@H]2c3cc(F)ccc3Cc3ccccc3[C@H]2C1; 0.145
CN(C)C[C@H]1C[C@@H]2c3ccccc3Cc3ccc(F)cc3[C@H]2[S@+]1[O-]; 1.78

Proceeding to the next molecule to report its IC50.
The value of IC50 measured for the molecule CN(C)C[C@@H]1C[C@@H]2c3ccccc3Cc3ccc(F)cc3[C@H]2S1(=O)=O turned out to be 1.35

====

melting point: recorded values

# count of solved cases: 3
N[C@@H]1CO[C@H]2c3cc(F)ccc3Cc3ccccc3[C@H]2C1; 74 to 76 °C
CNC1CO[C@H]2c3cc(F)ccc3Cc3ccccc3[C@H]2C1 (stereo in doubt); 55 to 56 °C
CN(C)C[C@H]1C[C@@H]2c3ccccc3Cc3ccc(F)cc3[C@H]2N1CCO; 88 to 90 °C

The value of melting point measured for the compound O=C1CO[C@H]2c3cc(F)ccc3Cc3ccccc3[C@H]2C1 turned out to be 146 to 148 °C

The value of melting point measured for the compound O[C@H]1CO[C@H]2c3cc(F)ccc3Cc3ccccc3[C@H]2C1 turned out to be 59 to 61 °C

The value of melting point measured for the compound Fc1ccc2c(c1)[C@@H]1[C@H](C[C@@H]3CNC(=S)N31)c1ccccc1C2 turned out to be 150 to 151 °C

The value of melting point measured for the compound CN(C)[C@@H]1CO[C@H]2c3cc(F)ccc3Cc3ccccc3[C@H]2C1 turned out to be 58 to 59 °C
